Hello, the source for this data is the supplement of paper PMC10899765, in case you need it.

Test system: MCF10A
Assay: percent viability (nuclei count relative to siNT); higher = more viable cells
Details: 20 nM; 72 h
hey, just use fulfilled if measured percent viability is less than 60%, otherwise not fulfilled

The examples below pair each entry with its known result.
                        ordered_residues          label
0  GAGCAAUGUAGGUAGACUGUUU [hsa-miR-3908]      fulfilled
1       GGGGUGGUCUGUUGUUG [hsa-miR-4483]      fulfilled
2     ACUGGAAUUGGAGUCAAAA [hsa-miR-6128]  not fulfilled

Query :: Does UGAGACAGGCUUAUGCUGCUAU [hsa-miR-4524a-3p] have percent viability strictly under 60%?
Result :: fulfilled

Query :: Strictly below 60%: is that where percent viability of UUCCUAUGCAUAUACUUCUUUG [hsa-miR-202-5p] sits?
Result :: not fulfilled

Query :: Lab note: percent viability threshold 60%. Does this sequence come in strictly under it? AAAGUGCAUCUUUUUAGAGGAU [hsa-miR-519c-3p]
Result :: not fulfilled

---

Measured percent viability, listed per entry for reference.
Tested on: MCF10A
Assay: percent viability (nuclei count relative to siNT); higher = more viable cells
Conditions: 20 nM; 72 h
Write the answer as a number in %, unit excluded.

Consider the worked cases shown below.
>>> df
                           ordered_residues  target_entity       measure_name  unit_of_measure  quantitative_result
0   CUUUCAGUCAGAUGUUUGCUGC [hsa-miR-30d-3p]         MCF10A  percent viability                %                  131
1  UGCCUACUGAGCUGAAACACAG [hsa-miR-24-2-5p]         MCF10A  percent viability                %                 46.7
2  AUAAUACAACCUGCUAAGUGCU [hsa-miR-374c-5p]         MCF10A  percent viability                %                 45.3
3   GACUGACACCUCUUUGGGUGAA [hsa-miR-888-3p]         MCF10A  percent viability                %                 84.1
4          UUCUGAGCUGAGGACAG [hsa-miR-4303]         MCF10A  percent viability                %                 45.5

Query :: For the record GGCUCAUGUGUCUGUCCUCUUC [hsa-miR-6847-3p] , what value of percent viability is listed for MCF10A?
Result :: 44.2

---

Test system: MCF10A
Assay: 5+ nucleoli phenotype percent effect (relative to siNT 0% and siKIF11 100%); higher = more cells with five or more nucleoli
Settings: 20 nM; 72 h
measure-name: 5+ nucleoli phenotype percent effect (%)
Dear colleague, please return just the value in %, with no unit written.

>>> print(df.to_string())
                         ordered_residues  unit_of_measure  quantitative_result
0  UGCCUAGGCUGAGACUGCAGUG [hsa-miR-3135a]                %                 1.84

Query :: Using the record for AUGGCCAGAGCUCACACAGAGG [hsa-miR-4435] , report its 5+ nucleoli phenotype percent effect.
Result :: 40.9

Query :: Give the measured 5+ nucleoli phenotype percent effect of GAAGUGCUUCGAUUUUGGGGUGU [hsa-miR-373-3p] .
Result :: 47.5
